- Subject of test: PTPN2 (B16F10.4 cells) (Mus musculus)
- Construct: HiBiT; host or cells: B16F10.4
- Sequence (Q06180 whole entry): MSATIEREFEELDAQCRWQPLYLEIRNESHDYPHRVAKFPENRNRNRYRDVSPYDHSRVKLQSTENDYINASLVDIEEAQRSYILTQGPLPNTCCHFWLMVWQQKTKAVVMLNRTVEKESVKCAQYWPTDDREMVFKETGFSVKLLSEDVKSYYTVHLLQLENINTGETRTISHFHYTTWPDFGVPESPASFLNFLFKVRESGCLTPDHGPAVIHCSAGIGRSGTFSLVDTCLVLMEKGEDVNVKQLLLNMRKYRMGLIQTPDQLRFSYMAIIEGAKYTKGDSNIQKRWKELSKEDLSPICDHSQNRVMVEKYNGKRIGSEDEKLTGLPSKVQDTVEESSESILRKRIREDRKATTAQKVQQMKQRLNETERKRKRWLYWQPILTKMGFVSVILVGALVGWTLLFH
- Assay summary: HiBiT Degradation B16F10.4 PTPN2
- Type: cell-based
- Measurement context: 24.0 hours
compounds and their reported DC50

Cn1c(=O)n(C2CCC(=O)NC2=O)c2ccc(Nc3ccc(C(=O)Nc4cccc(CS(=O)(=O)N5CC[C@H](Nc6cccc(-c7sc(C(=O)O)c(OCC(=O)O)c7Cl)c6)CC5(C)C)c4)cc3)cc21 (stereo partly drawn) : 50 to 200 nM
Cn1c(=O)n(C2CCC(=O)NC2=O)c2ccc(C3CCN(C(=O)Nc4cccc(CS(=O)(=O)N5CC[C@@H](Nc6cccc(-c7sc(C(=O)O)c(OCC(=O)O)c7Cl)c6F)CC5(C)C)c4)CC3)cc21 (stereo partly drawn) : < 50 nM
CN(C(=O)C1CCN(C(=O)CNc2cccc3c2CN(C2CCC(=O)NC2=O)C3=O)CC1)c1cccc(CS(=O)(=O)N2CC[C@H](Nc3cccc(-c4sc(C(=O)O)c(OCC(=O)O)c4Cl)c3)CC2(C)C)c1 (stereo partly drawn) : ≥ 1000 nM
CC1(C)C[C@@H](Nc2cccc(-c3sc(C(=O)O)c(OCC(=O)O)c3Cl)c2)CCN1S(=O)(=O)Cc1cccc(NC(=O)C2CCN(C(=O)CNc3ccc4c(c3)CN(C3CCC(=O)NC3=O)C4=O)CC2)c1 (stereo partly drawn) : ≥ 1000 nM
CC1(C)C[C@@H](Nc2cccc(-c3sc(C(=O)O)c(OCC(=O)O)c3Cl)c2)CCN1S(=O)(=O)Cc1cccc(NC(=O)N2CCC(n3c(=O)n(C4CCC(=O)NC4=O)c4ccccc43)CC2)c1 (stereo partly drawn) : ≥ 1000 nM
O=C(O)COc1c(C(=O)O)sc(-c2cccc(NC3CCN(S(=O)(=O)Cc4cccc(NC(=O)CCOCCOCCOCCCc5ccc6c(c5)CN(C5CCC(=O)NC5=O)C6=O)c4)CC3)c2)c1Cl (stereo not drawn) : 200 to 1000 nM

Record CC1(C)C[C@@H](Nc2cccc(-c3sc(C(=O)O)c(OCC(=O)O)c3Cl)c2)CCN1S(=O)(=O)Cc1cccc(NC(=O)C2CCN(C(=O)COc3cccc4c3CN(C3CCC(=O)NC3=O)C4=O)CC2)c1 (stereo partly drawn) , field DC50: 200 to 1000 nM

For CC1(C)C[C@@H](Nc2cccc(-c3sc(C(=O)O)c(OCC(=O)O)c3Cl)c2)CCN1S(=O)(=O)Cc1cccc(NC(=O)C2CN(C(=O)COc3cccc4c3CN(C3CCC(=O)NC3=O)C4=O)C2)c1 (stereo partly drawn) the compound record lists DC50 as ≥ 1000 nM

For this compound ( Cn1c(=O)n(C2CCC(=O)NC2=O)c2ccc([C@H]3CCN(C(=O)Nc4cccc(CS(=O)(=O)N5CC[C@H](Nc6cccc(-c7sc(C(=O)O)c(OCC(=O)O)c7Cl)c6)CC5(C)C)c4)C[C@@H]3F)cc21 (stereo partly drawn) ), measured DC50 is < 50 nM

Where do these numbers come from? They come from patent US20250302815A1.
